Data provenance is PubChem BioAssay (NCATS).

Test system: NIH3T3
Assay: qHTS assay to identify novel small-molecules to repurpose for Merkel cell carcinoma treatment (AID 1296009); note: nearly all actives have a fitted effect of over 60% in size
Settings: MCC and control cell lines, CellTiter-Glo viability, 72 h; at 44.8 µM (top of the series) unless noted
Results filed as inconclusive are left out. Calls of active or inactive are those of the source. Calls come from the whole dose curve; as a rule, active = well fitted inhibition curve with a large enough effect; inconclusive = small, poorly fitted or top-dose-only effect; inactive = flat fitted curve, though single readings scatter.
Test Readout: outcome

Solved entries:
Compound	Measured On	outcome
COC(=O)CC(O)CC(O)/C=C/c1c(C)ccc2c1C(O)CC(C)C2 (stereo not given)	NIH3T3	inactive
CCOc1cc(CC(=O)NC(CC(C)C)c2ccccc2N2CCCCC2)ccc1C(=O)O (stereo not given)	NIH3T3	inactive
CC(=O)N[C@@H](C(=O)O[C@H]1CCC(C)(C)[C@@H]2CCC3=C(COC3=O)[C@@]12C)C(C)C	NIH3T3	inactive
CO/N=C(/C(=O)N[C@@H]1C(=O)N2C(C(=O)O)=C(Cn3ccc(=N)n3CCO)CS[C@H]12)c1csc(N)n1	NIH3T3	inactive
COC(=O)C12CCC(C)C(C)C1C1=CCC3C4(C)CCC(OC(C)=O)C(C)(C)C4CCC3(C)C1(C)CC2 (stereo not given)	NIH3T3	inactive [at 17.4 µM]

Consider the compound C=C(C(=O)OC)C1C(O)CC2(C)C(=O)CCC(O)(CO)C2C1O (stereo not given) and give its measured outcome. inactive

Given the entry `CC1=CC(=O)[C@]2(O[C@@H]3O[C@@H](C)[C@H](O)[C@@H](O)[C@H]3OC(=O)/C=C/c3ccccc3)C=CO[C@@H](O[C@@H]3O[C@H](CO)[C@@H](O)[C@H](O)[C@H]3O)[C@H]12` , report its measured outcome. inactive [at 17.4 µM]

Which outcome value is on record for C=C(C(=O)O)C1CCC2(C)CCCC(C)(O)C2C1 (stereo not given) ? inactive

Recorded outcome of `COc1ccc(CCO[C@@H]2CCCC[C@H]2N2CC[C@@H](O)C2)cc1OC` , please. inactive

I would be grateful if you could share the reported outcome for `C[C@H](CCC(=O)O)[C@H]1CC[C@H]2[C@@H]3C[C@H](O)[C@@H]4C[C@H](O)CC[C@]4(C)[C@H]3CC[C@]12C` . inactive

Requested field: outcome. Item: CC(O)/C=C/C1OC(=O)CC1Nc1ccc(C(=O)O)cc1 (stereo not given) inactive

Any idea what its outcome is? The compound is `O=C1CCC(=O)N(O)CCCCCNC(=O)CCC(=O)N(O)CCOCCNC(=O)CCC(=O)N(O)CCCCCN1` inactive [at 17.4 µM]

Consider the compound `OC[C@H]1O[C@@H](Oc2cc(O)c3c(c2)O[C@@H](c2ccc(O)cc2)[C@H](O)C3)[C@H](O)[C@@H](O)[C@@H]1O` and give its measured outcome. inactive [at 17.4 µM]

outcome lookup needed for `C[C@]12C[C@@H](O)[C@@H]3C[C@@]1(O[C@@H]1O[C@H](CO)[C@@H](O)[C@H](O)[C@H]1O)[C@]3(COC(=O)c1ccccc1)C(=O)O2` , thanks. inactive [at 17.4 µM]

###

System: OV90
Experiment: Primary qHTS to identify gynecologic anti-cancer compounds using libraries of approved drugs and bioactive compounds (AID 1345084); note: % is set by controls: 0 for no effect and ±100 for the full control effect; nearly all actives have a fitted effect of over 55% in size
Details: Gynecologic cancer cell panel viability, ATPlite luminescence, 48 h; series mostly up to 57.5 µM
Inconclusive results are not listed. The source made the active and inactive calls. Calls follow the shape of the dose curve; as a rule, active = well fitted cell-killing curve with a large enough effect; inconclusive = small, poorly fitted or top-dose-only effect, or effect the other way; inactive = flat fitted curve, though single readings scatter.
Test Readout: activity change, negative = cytotoxicity

Some molecules with known activity change, negative = cytotoxicity results, for comparison:
Molecule	Measured
O=C(NCc1cccc(O)c1)c1cc2cc(F)ccc2[nH]1	inactive
O=C(Nc1ccc(-c2ccncc2)cc1)N[C@H](CO)c1ccccc1	inactive
O=C(O)/C=C/c1ccc(O)c(O[C@@H]2O[C@H](CO)[C@@H](O)[C@H](O)[C@H]2O)c1	inactive
CC(C)=CCC/C(C)=C/CC/C(C)=C/COC1OC(COC2OCC(OC3OCC(O)C(O)C3O)C(O)C2O)C(O)C(OC2OC(C)C(OC3OC(C)C(OC4OCC(OC5OC(C)C(O)C(O)C5O)C(O)C4O)C(O)C3O)C(O)C2O)C1O (stereo not drawn)	-9.19% [at 6.55 µM] (inactive)

Item `O=C1CC2(CCCC2)[C@H](O)C(=O)N1CCCCN1CCN(c2ncccn2)CC1` has what recorded activity change, negative = cytotoxicity? inactive

// query activity change, negative = cytotoxicity value for entry COc1ccc([C@@]2(O)c3c(ccc4c3OC(C)(CCC=C(C)C)C=C4)NC(=O)[C@@H]2OC)cc1 (stereo partly drawn) inactive

# lookup: activity change, negative = cytotoxicity of COc1c2cc(c(O)c1OC)-c1cc(ccc1O)CCC(O)CCCC2 (stereo not drawn) inactive

Need activity change, negative = cytotoxicity, item `CC(C)c1cc(C(=O)N2CC[C@@H](NC(=O)C3CC3)C2)n[nH]1` inactive
